System: 786-0
method: NCI tumour cell line growth inhibition, 48 h
The source made the active and inactive calls. Cut-off read from the data, not from the text of the source: active = GI50 up to about 1.1 µM and inactive = higher.
assay_endpoint: GI50

These recorded examples may help you get a feel for the data.
O=C1NC(N2CCCCC2)=N/C1=C\c1ccc(Cl)cc1 : 28.7 µM (inactive)
COC(=O)c1c/c(=N\NC(=O)CC(=O)Nc2ccc(C)cc2)c2ccccc2o1 : > 100 µM (inactive)
O=[N+]([O-])/C(C(Cl)=C(Cl)Cl)=C(\N1CCCCC1)n1cncn1 : 20.4 µM (inactive)
c1cncc(C(Nc2cccc3cccnc23)Nc2cccc3cccnc23)c1 : > 100 µM (inactive)

For the compound shown here, `CC(C)(C(=O)N(C(=O)N1CCN(c2ccccc2)CC1)S(=O)(=O)c1ccccc1)c1ccc(Cl)cc1` , give the reported GI50.
55.2 µM (inactive)

---

Tested on: HCT-15
method: NCI tumour cell line growth inhibition, 48 h
Kindly apply the following: label 1 if GI50 is less than 10 µM, label 0 in every other case.

CP1(=O)CCCCC1 : label 0
CC(=O)OC1CC(O)CC2=CCC3C4CCC(C(C)(O)C(O)CC5COC(=O)C5C)C4(C)CCC3C21C (configuration not stated) : label 0
O=C(Cn1c(C(=O)/C=C/c2cccs2)nc2ccccc21)c1ccc(Cl)cc1 : label 0
N#CC(/C(=N/NC(=N)N)C(=O)Nc1ccccc1[N+](=O)[O-])c1nc(-c2ccc([N+](=O)[O-])cc2)cs1 (configuration not stated) : label 0
COC1=C(OC)C(=O)C(Sc2ccc3ccccc3c2)=CC1=O : label 1
O=[N+]([O-])c1ccc(NN=C2c3ccccc3Cc3ccccc32)c([N+](=O)[O-])c1 : label 1
C=C1CCCC(C)(C)[C@@H]1CC/C(C)=C/Cn1c2cccc(=O)c-2nc2ccccc21 : label 1
COc1ccc(O)cc1C(O)c1ccccc1 (configuration not stated) : label 0

Take the molecule `CCCCSC1=N/C(=C\c2ccccc2O)C(Cl)=N1` and say whether its GI50 is less than 10 µM.
label 0

Consider next the molecule COc1c2c(cc3c1OCO3)C13C=CC(OC)CC1N(CC3)C2.[O-][Cl+3]([O-])([O-])O (configuration not stated) in the same way.
label 0

# repeat for `CN(C(=O)OC(C)(C)C)[C@H]1CCCC[C@H]1N1CCCC1`
label 0

Also, `COc1cc2c3c(n(C)c(=O)c2cc1OC)-c1cc2c(cc1/C3=C\CCCI)OCO2` please.
label 1

Do the same for `Nc1c(C(=O)Nc2ccccc2)[n+]([O-])c2ccccc2[n+]1[O-]` please
label 0

Now try `CN(C)CCNC1=C(Cl)C(=O)c2c(O)ccc(O)c2C1=O` .
label 1

---

Test system: ACHN
method: NCI tumour cell line growth inhibition, 48 h
Activity calls are given as the source filed them. No stated cut-off is given here; in the data, active = GI50 up to about 1.1 µM and inactive = higher.
Thanks in advance; please answer with one of these: 1.0 for active, 0.0 for inactive

Example cases with answers are listed next.
COc1c2c(cc3oc(C)cc(=O)c13)OC(=N)C(C(N)=O)C2CC(=O)c1ccc(N)cc1 (stereo unspecified) : 0.0
C[C@]12CCC(=O)C=C1CC[C@@H]1[C@@H]2CC[C@]2(C)C(=O)NC(=O)C[C@@H]12 : 0.0
COC(=O)C1(NC(=O)C(CC(=O)OCc2ccccc2)NC(=O)OCc2ccccc2)CCCCCCC1 (stereo unspecified) : 0.0
O=C1NC(N2CCCCC2)=N/C1=C\c1ccc(Cl)cc1 : 0.0
C[C@@H]1CC[C@@]2(OC1)O[C@H]1[C@@H](O)[C@H]3[C@@H]4CC[C@H]5C[C@@H](O[C@@H]6O[C@H](CO)[C@H](O[C@@H]7O[C@H](CO)C(O)[C@H](O[C@@H]8OC[C@@H](O)[C@H](O)[C@H]8O)[C@H]7O[C@@H]7O[C@H](CO)[C@H](O)[C@H](O[C@@H]8O[C@H](CO)[C@@H](O)[C@H](O)[C@H]8O)[C@H]7O)[C@H](O)[C@H]6O)[C@H](O)C[C@]5(C)[C@H]4CC[C@]3(C)[C@H]1[C@@H]2C (stereo partly specified) : 0.0

Please look at the following compound next.
Hi team, can someone confirm the assay call for `Cc1c2ccccc2c(C)n2c1nc1cc3ccccc3cc12` ?
1.0
